- Assayed target: beta-catenin/TCF4 engagement (Homo sapiens)
- Construct: expressed in transfected cells; host or cells: HEK293
- Sequence (P35222 whole entry): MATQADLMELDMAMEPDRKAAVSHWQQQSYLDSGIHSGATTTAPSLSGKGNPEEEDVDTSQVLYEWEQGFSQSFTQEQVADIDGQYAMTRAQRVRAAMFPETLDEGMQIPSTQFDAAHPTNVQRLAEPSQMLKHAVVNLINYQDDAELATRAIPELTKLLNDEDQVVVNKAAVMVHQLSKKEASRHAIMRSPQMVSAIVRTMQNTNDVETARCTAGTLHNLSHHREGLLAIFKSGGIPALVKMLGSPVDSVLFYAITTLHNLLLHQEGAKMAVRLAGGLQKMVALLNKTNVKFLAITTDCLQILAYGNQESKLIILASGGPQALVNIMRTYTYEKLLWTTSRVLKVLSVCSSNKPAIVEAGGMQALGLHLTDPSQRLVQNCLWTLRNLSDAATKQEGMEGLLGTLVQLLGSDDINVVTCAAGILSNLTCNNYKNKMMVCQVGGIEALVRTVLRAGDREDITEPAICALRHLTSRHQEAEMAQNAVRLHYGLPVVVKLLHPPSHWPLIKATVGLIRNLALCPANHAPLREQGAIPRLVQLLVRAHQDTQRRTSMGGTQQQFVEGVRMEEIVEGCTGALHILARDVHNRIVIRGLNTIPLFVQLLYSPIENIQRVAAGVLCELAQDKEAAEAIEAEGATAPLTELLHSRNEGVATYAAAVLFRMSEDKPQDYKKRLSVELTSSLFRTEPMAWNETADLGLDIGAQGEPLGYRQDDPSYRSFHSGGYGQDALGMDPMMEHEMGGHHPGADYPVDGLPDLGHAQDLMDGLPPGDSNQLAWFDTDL
- Protocol summary: Nano-BRET target engagement assay (B-cat-Halo & TCF4-Luc in HEK293 cells)
- Type: cell-based
- Condition summary: read-out: NanoBRET Abs IC50
The compounds listed here are annotated with their IC50.
Form entry: value (µM) — number only.

The following compounds have reported results that may help.
{"columns": ["Compound", "Measured"],
 "data": [
  ["CC(=O)N1CCC[C@]12CC=CCCCC1(CCCC=CCCCOC(=O)N3CC[C@@](C(=O)N[C@@H](Cc4ccsc4)C(=O)N[C@@H](Cc4csc5ccccc45)C(=O)N[C@@H](CCC(N)=O)C(N)=O)(C3)NC(=O)[C@H]([C@@H](C)O)NC(=O)[C@H](Cc3ccccc3)NC(=O)[C@H](C)NC(=O)[C@H](C)NC(=O)[C@H](CC(=O)O)NC(=O)[C@H](CC(=O)O)NC1=O)NC(=O)[C@H](CC(C)(C)C)NC(=O)[C@H](CC(=O)O)NC2=O (some centres unmarked)", 6.1],
  ["CC(=O)N1CCC[C@]12CC=CCCCC1(CCCC=CCCCCOC(=O)N3CC[C@@](C(=O)N[C@@H](Cc4ccsc4)C(=O)N[C@@H](Cc4csc5ccccc45)C(=O)N[C@@H](CCC(N)=O)C(=O)N[C@@H](C)C(N)=O)(C3)NC(=O)[C@H](CC(N)=O)NC(=O)[C@H](Cc3ccccc3)NC(=O)[C@H](C)NC(=O)[C@H](C)NC(=O)[C@H](CC(=O)O)NC(=O)[C@H](CC(=O)O)NC1=O)NC(=O)[C@H](CC(C)(C)C)NC(=O)[C@H](CC(=O)O)NC2=O (some centres unmarked) [I-826]", 22.7],
  ["CC(=O)N1CCC[C@]12CC=CCCCC1(CCCC=CCCCOC(=O)N3CC[C@@](C(=O)N[C@@H](Cc4ccsc4)C(=O)N[C@@H](Cc4csc5ccccc45)C(=O)N[C@@H](CCC(N)=O)C(N)=O)(C3)NC(=O)[C@H](CC(C)C)NC(=O)C(Cc3cccc(C(=O)Oc4ccccc4)c3)NC(=O)[C@H](C)NC(=O)[C@H](C)NC(=O)[C@H](CN(CC(=O)O)CC(F)(F)F)NC(=O)[C@H](CC(=O)O)NC1=O)NC(=O)[C@H](CC(C)(C)C)NC(=O)[C@H](CC(=O)O)NC2=O (single isomer, unassigned)", 14.6]
]}

Read off the recorded IC50 for CC(=O)N1CCC[C@]12CC=CCCCC1(CCCC=CCCCOC(=O)N3CC[C@@](C(=O)N[C@@H](Cc4ccsc4)C(=O)N[C@@H](Cc4csc5ccccc45)C(=O)N[C@@H](CCC(N)=O)C(N)=O)(C3)NC(=O)[C@H](CCO)NC(=O)[C@H](Cc3cccc(C(=O)O)c3)NC(=O)[C@H](C)NC(=O)[C@H](C)NC(=O)[C@H](Cc3c[nH]c4ccccc34)NC(=O)[C@H](CC(=O)O)NC1=O)NC(=O)[C@H](CC(C)(C)C)NC(=O)[C@H](CC(=O)O)NC2=O (some centres unmarked)
27

Provide only the value of recorded IC50 for CC(=O)N1CCC[C@]12CC=CCCCC1(CCCC=CCCCOC(=O)N3CC[C@@](C(=O)N[C@@H](Cc4ccsc4)C(=O)N[C@@H](Cc4ccc(Cl)c(Cl)c4)C(=O)N[C@@H](CCC(N)=O)C(N)=O)(C3)NC(=O)[C@H](CC(N)=O)NC(=O)[C@H](Cc3ccccc3)NC(=O)[C@H](C)NC(=O)[C@H](C)NC(=O)[C@H](CC(=O)O)NC(=O)[C@H](CC(=O)O)NC1=O)NC(=O)[C@H](CC(C)(C)C)NC(=O)[C@H](CC(=O)O)NC2=O (some centres unmarked)
11.1
